Listed next: entries and their corresponding concentration at 0.25 h.
# ASSAY NAME: Pharmacokinetics in CD-1 mice (plasma concentrations, PK parameters)
# Format: in vivo
# COND: CD-1, mouse, plasma, iv, 2 mg/kg, mouse (CD1) iv 2 mg/kg; 0.25 h; individual Mouse 1-3
# Protocol: Pharmacokinetics for I-127, I-172 and I-210 were determined in Sprague Dawley rats or CD-1 mice by dosing intravenous (IV), subcutaneous (SC) or per oral (PO) using facility SOPs and sampling plasma at required time points. […] Compounds were extracted from plasma, injected on reverse phase HPLC, eluted with a gradient from 5% to 95% acetonitrile in water and quantified by mass spectrometry with internal standard. […]
Kindly answer with a numeric value in ng/mL, unit omitted.

NC(=O)c1nn(-c2ccc(C(=O)NCCCCCNCCNc3cccc4c3C(=O)N(C3CCC(=O)NC3=O)C4=O)cc2)cc1NC(=O)c1coc(-c2ccnc(NCC(F)(F)F)c2)n1 (centres unmarked) [I-172] ... 444

Query molecule follows.
// field: concentration at 0.25 h; key: O=C1CCC(N2C(=O)c3cccc(NCCOCCOCCNCc4ccc(-n5cc(NC(=O)c6coc(-c7ccnc(NCC8CC8)c7)n6)c(C(F)F)n5)cc4)c3C2=O)C(=O)N1 (centres unmarked) [I-210] ; value = 364

====

Here, each record is paired with measured half-life data.
# ASSAY NAME: Pharmacokinetics in CD-1 mice (plasma concentrations, PK parameters)
# Format: in vivo
# COND: CD-1, mouse, plasma, sc, 30 mg/kg, mouse (CD1) sc 30 mg/kg; Mean
Express it in h; write the number only.

O=C1CCC(N2C(=O)c3cccc(NCCOCCOCCNCc4ccc(-n5cc(NC(=O)c6coc(-c7ccnc(NCC8CC8)c7)n6)c(C(F)F)n5)cc4)c3C2=O)C(=O)N1 (centres unmarked) ... 3.96

Consider the record given below.
// half-life lookup, compound = NC(=O)c1nn(-c2ccc(C(=O)NCCCCCNCCNc3cccc4c3C(=O)N(C3CCC(=O)NC3=O)C4=O)cc2)cc1NC(=O)c1coc(-c2ccnc(NCC(F)(F)F)c2)n1 (centres unmarked) , result: 8

====

# TESTED ON: IRAK4 (Homo sapiens)
# Sequence (Q9NWZ3 1-460): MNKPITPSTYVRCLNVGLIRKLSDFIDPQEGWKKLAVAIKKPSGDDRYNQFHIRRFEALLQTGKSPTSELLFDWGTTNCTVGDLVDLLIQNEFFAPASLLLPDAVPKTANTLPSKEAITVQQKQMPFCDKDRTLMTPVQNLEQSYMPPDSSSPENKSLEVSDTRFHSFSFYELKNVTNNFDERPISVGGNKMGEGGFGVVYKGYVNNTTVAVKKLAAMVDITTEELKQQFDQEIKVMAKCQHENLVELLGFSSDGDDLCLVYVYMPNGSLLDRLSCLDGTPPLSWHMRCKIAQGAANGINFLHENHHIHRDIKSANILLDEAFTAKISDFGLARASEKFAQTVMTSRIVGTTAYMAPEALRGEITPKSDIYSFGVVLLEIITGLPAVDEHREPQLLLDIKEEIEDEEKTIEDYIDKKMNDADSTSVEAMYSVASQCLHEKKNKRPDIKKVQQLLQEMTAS
# ASSAY NAME: OCI-LY-10 MSD assay for IRAK4 DC50
# Assay type: cell-based
# Parameters: endogenous in cells; host or cells: OCI-LY10
# COND: OCI-LY10 cells, 4 hr incubation, concentration required to degrade 50% of protein
QUANTITY NAME: DC50

Answered cases to consult:
Cn1ncc2nc(Nc3cnn(CCOCCOCCNc4cccc5c4C(=O)N(C4CCC(=O)NC4=O)C5=O)c3)nc(NC3CCC(N4CCOCC4)CC3)c21 (stereo not drawn) ... > 1000 nM
Cn1c(=O)n(C2CCC(=O)NC2=O)c2ccc(CCCNCC3COC4C(CNCc5ccc(-n6cc(NC(=O)c7coc(-c8ccnc(NCC9CC9)c8)n7)c(C(F)F)n6)cc5)COC34)cc21 (stereo not drawn) ... < 50 nM

// next entry
Input CC1(C)CCN(c2nn(-c3ccc(C(=O)NCCOCCOCCNc4cccc5c4C(=O)N(C4CCC(=O)NC4=O)C5=O)cc3)cc2NC(=O)c2coc(-c3ccnc(NCC(F)(F)F)c3)n2)C1=O (stereo not drawn) . Output DC50: > 1000 nM

====

# TESTED ON: IRAK4 (Homo sapiens)
# ASSAY NAME: OCI-LY-10 degradation assay (western blot, % IRAK4 degraded after 4 hours)
# Type: cell-based
# Set-up: endogenous in cells; host or cells: OCI-LY10
# COND: OCI-LY10 cells, 4 hours, 0.1 uM compound
QUANTITY NAME: OCI-LY10 % IRAK4 Degradation (0.1 uM)

Worked set:
NC(=O)c1nn(-c2ccc(CNCC3CN(CCOCCNc4cccc5c4C(=O)N(C4CCC(=O)NC4=O)C5=O)CCO3)cc2)cc1NC(=O)c1coc(-c2ccnc(NCC(F)(F)F)c2)n1 (centres unmarked) [I-305] ... A (>50% degradation)
CN(CCOCCCc1cccc2c1C(=O)N(C1CCC(=O)NC1=O)C2=O)Cc1ccc(-n2cc(NC(=O)c3coc(-c4ccncc4)n3)c(C(F)F)n2)cc1 (centres unmarked) [I-363] ... C (<20% degradation)
Cn1c(=O)n(C2CCC(=O)NC2=O)c2ccc(CCCOCCOCCNC(=O)c3ccc(-n4cc(NC(=O)c5coc(-c6ccnc(NCC7CC7)c6)n5)c(C(F)F)n4)cc3)cc21 (centres unmarked) [I-252] ... A (>50% degradation)
O=C1CCC(N2C(=O)c3cccc(NC4CCN(CCOCCNCc5ccc(-n6cc(NC(=O)c7coc(-c8ccnc(NCC9CC9)c8)n7)c(C(F)F)n6)cc5)CC4)c3C2=O)C(=O)N1 (centres unmarked) [I-385] ... B (>20-50% degradation)
CN(CCNCCCc1ccc2c(c1)C(=O)N(C1CCC(=O)NC1=O)C2=O)C(=O)c1ccc(-n2cc(NC(=O)c3coc(-c4ccncc4)n3)c(C(F)F)n2)cc1 (centres unmarked) [I-378] ... C (<20% degradation)
O=C1CCC(N2C(=O)c3cccc(CCCNCc4ccc(-n5cc(NC(=O)c6coc(-c7ccncc7)n6)c(C(F)F)n5)cc4)c3C2=O)C(=O)N1 (centres unmarked) [I-366] ... C (<20% degradation)
O=C1CCC(N2C(=O)c3cccc(NCCOCCOCCOCC(=O)N4C[C@H](O)C[C@H]4C(=O)NCc4ccc(-n5cc(NC(=O)c6coc(-c7ccnc(NCC8CC8)c7)n6)c(C(F)F)n5)cc4)c3C2=O)C(=O)N1 (some centres unmarked) [I-287] ... C (<20% degradation)
NC(=O)c1nn(-c2ccc(C(=O)NCCOCCOCCCc3cccc4c3oc(=O)n4C3CCC(=O)NC3=O)cc2)cc1NC(=O)c1coc(-c2ccnc(NCC(F)(F)F)c2)n1 (centres unmarked) [I-266] ... A (>50% degradation)

Form: molecule = Cn1c(=O)n(C2CCC(=O)NC2=O)c2ccc(CCCOCCOCCNCc3ccc(-n4cc(NC(=O)c5coc(-c6ccnc(NCC7CC7)c6)n5)c(C(F)F)n4)cc3)cc21 (centres unmarked) [I-331] ; OCI-LY10 % IRAK4 Degradation (0.1 uM) = B (>20-50% degradation)

// OCI-LY10 % IRAK4 Degradation (0.1 uM) value for CN(CCCc1cccc2c1C(=O)N(C1CCC(=O)NC1=O)C2=O)Cc1ccc(-n2cc(NC(=O)c3coc(-c4ccnc(NCC5CC5)c4)n3)c(C(F)F)n2)cc1 (centres unmarked) [I-355] : B (>20-50% degradation)

OCI-LY10 % IRAK4 Degradation (0.1 uM) in this record for Cn1cc(NC(=O)c2coc(-c3ccnc(NCC(F)(F)F)c3)n2)c(C(=O)NCCCOCC(C)(C)COCCCc2cccc3c2n(C)c(=O)n3C2CCC(=O)NC2=O)n1 (centres unmarked) [I-297] : C (<20% degradation)

====

# ASSAY NAME: Pharmacokinetics in Sprague Dawley rats (plasma and brain concentrations, PK parameters)
# Type: in vivo
# COND: Sprague-Dawley, rat, plasma, iv, 3 mg/kg, Sprague Dawley rat, iv 3 mg/kg, plasma, 8 h, Rat 2; read-out: Concentration Rat 2
QUANTITY NAME: concentration at 8 h
Write the figure, then the unit, nothing else.

Documented concentration at 8 h of O=C1CCC(N2C(=O)c3cccc(NCCOCCOCCNCc4ccc(-n5cc(NC(=O)c6coc(-c7ccnc(NCC8CC8)c7)n6)c(C(F)F)n5)cc4)c3C2=O)C(=O)N1 (stereo not shown) [I-210] : 24.8 ng/mL

====

# ASSAY NAME: Pharmacokinetics in Sprague Dawley rats (plasma and brain concentrations, PK parameters)
# Assay type: in vivo
# COND: Sprague Dawley, rat, plasma, po, 10 mg/kg, Sprague Dawley rat, po 10 mg/kg, plasma, 1 h, Rat 6; read-out: Concentration Rat 6
QUANTITY NAME: concentration at 1 h

Memo: O=C1CCC(N2C(=O)c3cccc(NCCOCCOCCNCc4ccc(-n5cc(NC(=O)c6coc(-c7ccnc(NCC8CC8)c7)n6)c(C(F)F)n5)cc4)c3C2=O)C(=O)N1 (stereo not shown) [I-210] , reported concentration at 1 h: 0.426 ng/mL
